- Target Or System: Sodium-dependent dopamine transporter (Rattus norvegicus) (UniProt P23977)
- Sequence (P23977 whole entry): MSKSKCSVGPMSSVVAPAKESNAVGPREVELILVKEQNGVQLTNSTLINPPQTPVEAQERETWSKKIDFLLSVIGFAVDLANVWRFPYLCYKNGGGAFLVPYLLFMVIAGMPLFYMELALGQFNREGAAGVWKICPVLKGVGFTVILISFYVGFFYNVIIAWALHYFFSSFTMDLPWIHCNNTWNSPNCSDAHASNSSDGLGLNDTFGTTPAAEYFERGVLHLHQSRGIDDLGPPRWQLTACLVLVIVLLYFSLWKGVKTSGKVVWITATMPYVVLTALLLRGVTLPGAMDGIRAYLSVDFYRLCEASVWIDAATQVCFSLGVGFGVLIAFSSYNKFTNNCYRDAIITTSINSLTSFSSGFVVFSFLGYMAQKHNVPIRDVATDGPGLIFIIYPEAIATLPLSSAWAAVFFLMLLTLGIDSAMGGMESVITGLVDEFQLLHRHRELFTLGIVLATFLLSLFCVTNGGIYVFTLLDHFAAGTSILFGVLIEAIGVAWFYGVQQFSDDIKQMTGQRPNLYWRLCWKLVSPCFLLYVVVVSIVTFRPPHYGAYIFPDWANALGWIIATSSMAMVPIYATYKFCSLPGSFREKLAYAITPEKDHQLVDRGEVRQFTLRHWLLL
- Run Description: Percent inhibition of [3H]dopamine uptake in rat brain tissue at 100 uM
- Assay type: functional, tissue-based
Measured Quantity: inhibition (%)
Write down the numeric answer in % and omit the unit.

- Chem Smiles: "CCOC(=O)C1(c2ccc(Cl)c(Cl)c2)CCN(C)CC1"
  Result: 22
- Chem Smiles: "CN1CCC(C#N)(c2ccc3ccccc3c2)CC1"
  Result: 11
- Chem Smiles: "CCOC(=O)C1(c2ccc3ccccc3c2)CCN(C)CC1"
  Result: 16

# inhibition lookup, item CCOC(=O)C1(c2ccc(F)cc2)CCN(C)CC1
47

---

Each entry below carries its recorded pKi.
- Target Or System: Mu-type opioid receptor (Homo sapiens)
- Sequence (P35372 whole entry): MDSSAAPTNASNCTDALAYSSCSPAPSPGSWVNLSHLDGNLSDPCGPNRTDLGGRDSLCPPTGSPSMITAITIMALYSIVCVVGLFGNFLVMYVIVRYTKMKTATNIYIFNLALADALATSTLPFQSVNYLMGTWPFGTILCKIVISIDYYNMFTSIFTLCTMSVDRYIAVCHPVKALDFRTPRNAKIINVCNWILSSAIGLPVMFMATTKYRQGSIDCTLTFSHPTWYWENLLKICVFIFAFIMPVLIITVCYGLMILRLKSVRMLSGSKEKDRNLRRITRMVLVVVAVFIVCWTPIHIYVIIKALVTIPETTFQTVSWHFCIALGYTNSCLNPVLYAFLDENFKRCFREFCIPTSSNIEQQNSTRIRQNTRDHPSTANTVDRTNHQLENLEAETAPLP
- Run Description: Inhibition of [3H]DAMGO binding to mu-opioid receptor
Lab note: report pKi as minus log10 of the concentration in molar units, number only.

Some compounds with known pKi results, for comparison:
- Chem Smiles: "CCOC(=O)C1(c2ccc(I)cc2)CCN(C)CC1"
  Target Or System: "Mu-type opioid receptor (Homo sapiens)"
  Result: 5.63
- Chem Smiles: "CCOC(=O)C1(c2ccc3ccccc3c2)CCN(C)CC1"
  Target Or System: "Mu-type opioid receptor (Homo sapiens)"
  Result: 5.69

Continue with the compound presented below.
Entry CCOC(=O)C1(c2ccc(Cl)cc2)CCN(C)CC1 , system Mu-type opioid receptor (Homo sapiens): what pKi was measured?
5.36

---

- Target Or System: Norepinephrine transporter (Rattus norvegicus)
- Sequence (Q9WTR4 whole entry): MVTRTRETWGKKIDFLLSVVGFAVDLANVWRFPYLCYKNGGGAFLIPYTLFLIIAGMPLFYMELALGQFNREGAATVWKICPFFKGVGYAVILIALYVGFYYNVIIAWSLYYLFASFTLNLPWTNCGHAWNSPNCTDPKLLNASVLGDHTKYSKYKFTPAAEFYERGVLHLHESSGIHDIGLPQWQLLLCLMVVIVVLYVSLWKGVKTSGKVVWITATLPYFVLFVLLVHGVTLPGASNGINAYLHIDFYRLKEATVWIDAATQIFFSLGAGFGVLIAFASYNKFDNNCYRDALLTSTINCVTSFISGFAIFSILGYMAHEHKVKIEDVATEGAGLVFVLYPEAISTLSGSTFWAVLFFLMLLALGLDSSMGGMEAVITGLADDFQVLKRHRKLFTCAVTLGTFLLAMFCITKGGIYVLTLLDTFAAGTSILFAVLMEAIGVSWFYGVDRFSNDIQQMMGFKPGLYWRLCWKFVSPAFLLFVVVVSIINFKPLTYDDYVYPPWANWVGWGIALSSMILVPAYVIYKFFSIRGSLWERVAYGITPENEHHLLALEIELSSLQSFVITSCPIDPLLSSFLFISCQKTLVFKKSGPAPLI
- Run Description: Inhibition of [3H]nisoxetine binding to rat norepinephrine transporter at 10 uM
Measured Quantity: Ki

Entry CN1CCC(C#N)(c2ccc(F)cc2)CC1 , system Norepinephrine transporter (Rattus norvegicus): what Ki was measured?
101 µM

---

- Target Or System: Norepinephrine transporter (Rattus norvegicus)
- Run Description: Inhibition of [3H]-nisoxetine binding to rat norepinephrine transporter
Each entry below carries its recorded Ki.
Write down the numeric answer in µM and omit the unit.

Some compounds with known Ki results, for comparison:
- Chem Smiles: "CCOC(=O)C1(c2ccc(Cl)c(Cl)c2)CCN(C)CC1"
  Ki / µM: 74.5
- Chem Smiles: "CCOC(=O)C1(c2ccc(I)cc2)CCN(C)CC1"
  Ki / µM: 519
- Chem Smiles: "CCOC(=O)C1(c2ccc(Cl)cc2)CCN(C)CC1"
  Ki / µM: 601

# Ki lookup, item CCOC(=O)C1(c2ccc3ccccc3c2)CCN(C)CC1
71.1

---

Each entry below carries its recorded IC50.
- Target Or System: Sodium-dependent dopamine transporter (Rattus norvegicus)
- Run Description: Inhibitory concentration against [3H]DA uptake in rat brain tissue
- Format: functional, tissue-based
Write down the numeric answer in µM and omit the unit.

- Chem Smiles: "CCOC(=O)C1(c2ccc(C)cc2)CCN(C)CC1"
  Unit Abbrev: "µM"
  Result: 76.2

Continue with the compound presented below.
Entry CCOC(=O)C1(c2ccc(I)cc2)CCN(C)CC1 , system Sodium-dependent dopamine transporter (Rattus norvegicus): what IC50 was measured?
11.1

---

- Target Or System: Sodium-dependent dopamine transporter (Rattus norvegicus, UniProt P23977)
- Sequence (P23977 whole entry): as the sequence (P23977 whole entry) above
- Run Description: Inhibitory concentration against [3H]dopamine uptake in rat brain tissue
- Format: functional, tissue-based
Measured Quantity: IC50 (µM)
Write down the numeric answer in µM and omit the unit.

# IC50 lookup, item CN1CCC(C#N)(c2ccc(I)cc2)CC1
36.7
